Provenance of the data: patent US5880121A

- assay target: 5-HT3 Receptor (Rattus norvegicus, UniProt P35563)
- Sequence (P35563 24-483): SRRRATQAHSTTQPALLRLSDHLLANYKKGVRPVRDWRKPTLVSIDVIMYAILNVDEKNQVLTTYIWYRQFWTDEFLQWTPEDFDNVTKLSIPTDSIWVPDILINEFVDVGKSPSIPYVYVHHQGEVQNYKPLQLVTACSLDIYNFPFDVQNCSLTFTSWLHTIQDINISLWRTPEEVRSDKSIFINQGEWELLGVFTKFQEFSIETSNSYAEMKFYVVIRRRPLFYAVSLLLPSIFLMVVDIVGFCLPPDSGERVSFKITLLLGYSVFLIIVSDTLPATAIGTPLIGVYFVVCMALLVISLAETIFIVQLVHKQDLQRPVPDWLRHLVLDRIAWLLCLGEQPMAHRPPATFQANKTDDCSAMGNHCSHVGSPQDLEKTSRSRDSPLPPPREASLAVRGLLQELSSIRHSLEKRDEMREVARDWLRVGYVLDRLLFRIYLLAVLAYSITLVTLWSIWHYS
endpoint name: IC50 (nM)
# number only, unit nM dropped from output

Inquiry: Which IC50 is reported for this compound? OCCN1CCN(c2onc3c2CCc2ccccc2-3)CC1
Reply text: 868
